Tested on: B-cell
Test: Immunostimulant activity in Balb/c mouse B cells assessed as LPS-induced cell proliferation at 1 uM after 48 hrs by MTT assay relative to control
Type: ADME, cell-based
result_type: Activity

>>> assay_result("CC(=O)OCC(C)C1CCc2c(C)cc(OC(C)=O)c(C)c2C1O (stereo unspecified)")
"2.65%"
>>> assay_result("Cc1ccc(NC(=O)[C@H](C)[C@@H]2CCc3c(C)cc(O)c(C)c3C2)cc1O")
"6.96%"
>>> assay_result("Cc1cc(O)c(C)c2c1CC[C@@H]([C@@H](C)C(=O)Nc1nccc(C)c1[N+](=O)[O-])C2")
"28.35%"
>>> assay_result("Cc1cc(O)c(C)c2c1CCC1C2OC(O)C1C (stereo unspecified)")
"13.27%"
>>> assay_result("Cc1cc(OCc2cnnn2/C=C/c2ccccc2)c(C)c2c1CC[C@H]1[C@H](C)C(=O)O[C@@H]21")
"36.75%"
>>> assay_result("Cc1c(N)c(O)c(C)c2c1CC[C@H]1[C@H](C)C(=O)O[C@@H]21")
"17.52%"
>>> assay_result("Cc1cc(O)c(C)c2c1CCC(C(C)CO)C2O (stereo unspecified)")
"14.52%"
>>> assay_result("CC1=C2[C@H]3OC(=O)[C@@H](C)[C@@H]3CC[C@@]2(C)C=CC1=O [SANTONIN]")
"20.35%"
>>> assay_result("CCOC(=O)[C@H](C)c1ccc2c(C)cc(O)c(C=O)c2c1")
"14.15%"
>>> assay_result("COc1cc(C)c2ccc([C@@H](C)C(=O)O)cc2c1C")
"86.66%"
>>> assay_result("Cc1cc(O)c(C)c2c1CC[C@@H]([C@@H](C)C(=O)O)C2")
"15.92%"

The reported measurements were obtained from ChEMBL document CHEMBL3994585.
